Measured values drawn from PubChem BioAssay (NCI) for this set.

Tested on: IGROV1 ovarian
Assay: NCI tumour cell line growth inhibition, 48 h
property name: TGI

# TGI lookup, item `O=c1oc2cc(O)ccc2c(O)c1C(c1ccc2ccccc2c1)c1c(O)c2ccc(O)cc2oc1=O`
> 100 µM

Data request, read-out TGI, for `COc1ccc(-c2c(-c3cc4c(c(OC)c3OC)OCO4)noc2N)cc1`
> 100 µM

For CCCCCCCCCCCCCCCCCCNc1ccn(C2OC(COP(=O)(O)OCC(COP(=O)(O)OCC3OC(n4cc(C)c(=O)[nH]c4=O)CC3N=[N+]=[N-])OCCCCCCCCCCCCCCCCCC)C(O)C2O)c(=O)n1 (configuration not stated) , what is its reported TGI?
> 100 µM

So what's the measured TGI for this one? CC1(C)CCCC2(C)C3=C(CCC12)C(=O)OC3 (configuration not stated)
> 100 µM

Please report the recorded TGI for `COc1ccc(-c2cc(=O)c3c(OC)c(O)c(OC)cc3o2)cc1` .
> 100 µM

So what's the measured TGI for this one? CC(=O)OC1COC(n2c(O)c(N=Nc3ccc([N+](=O)[O-])cc3)c3cc(Br)c([N+](=O)[O-])cc32)C(OC(C)=O)C1OC(C)=O (configuration not stated)
70.3 µM

Consider the molecule shown here: `COc1ccc(Nc2[nH]n(C3=Nc4ccccc4Sc4ccccc43)c(=O)c2C#N)cc1` What is its recorded TGI?
> 100 µM

Find the recorded TGI belonging to Cc1cc(Cl)ccc1NC(=O)C1C(=O)C(=O)N(c2ccc(Cl)cc2C)C1=O (configuration not stated) and report it.
> 100 µM

For the molecule CN1CCN2c3ccccc3CC(C#N)(C#N)C2C1 (configuration not stated) , what TGI is on record?
> 100 µM

// TGI lookup, key: `CC(=O)CC(=O)ON(C)C(C)=O`
> 100 µM

Suppose we examine the molecule `COc1ccc2c(c1)O/C(=C\c1ccc([N+](=O)[O-])o1)C2=O` ; what TGI value has been reported?
7.3 µM

Which TGI reading was recorded for the molecule `COc1cccc(-c2cc(C(=O)Nc3ccc(Cl)cc3)nc(N)n2)c1` ?
> 100 µM

Would you kindly share the measured TGI for CC[C@]1(Cc2ccc(OC)c(OC)c2)C=[N+]([O-])O[C@H](OC2CCCCC2c2ccccc2)[C@@H]1OC(C)=O (some centres not stated) ?
> 100 µM

Which value of TGI has been reported for Nc1nc(Cl)cc(NCC2(CO)CC(CCCc3ccccc3)C2)n1 (configuration not stated) in the records?
> 100 µM

Suppose we examine the molecule Cn1c(=O)c2c(nc(N3CCOCC3)n2CCCNCC(O)c2ccc(O)c(O)c2)n(C)c1=O (configuration not stated) ; what TGI value has been reported?
> 100 µM

Any idea what its TGI is? The molecule is CC(C)COC(=O)N1N=NC2C3CC(=O)C(O3)C21 (configuration not stated)
> 100 µM

// TGI lookup, key: `O=C1c2cccc3c([N+](=O)[O-])ccc(c23)C(=O)N1CCCCl`
5 µM

====

System: NCI-H460 lung
Assay: NCI tumour cell line growth inhibition, 48 h
property name: TGI

Query: TGI; subject: `O=S(=O)(Nc1nc2ccccc2nc1Nc1cccc2ccccc12)c1ccccc1`
> 100 µM

Would you mind telling me what TGI value was observed for `CN(C)C=O.CN(C)C=O.CN1C(C(=O)Nc2ccccn2)=C([O-])c2ccccc2S1(=O)=O.CN1C(C(=O)Nc2ccccn2)=C([O-])c2ccccc2S1(=O)=O.[Cu+2]` ?
> 100 µM

Name the reported TGI value associated with the molecule `COc1c(N2CCCCC2)c2c(=O)c3ccccc3oc2c2cc(C)oc12`
> 100 µM

Entry `COc1cccc(-c2cc(=O)c3cc(C)c(C)c(C(=O)O)c3o2)c1` : reported TGI = ?
> 100 µM

Any idea what TGI was measured for `COCn1c(=O)n(C)c(=O)c2c1nc1c(c(=O)n(C)c(=O)n1COC)[n+]2[O-]` ?
24.9 µM
